Data credit: ChEMBL document CHEMBL4422651

- system tested: CYP450 (Homo sapiens, UniProt P04798+P05177+P05181+P08684+P10632+P10635+P11509+P11712+P13584+P20813+P20815+P20853+P24462+P24903+P33260+P33261+P51589+P78329+P98187+Q02928+Q08477+Q16678+Q16696+Q5TCH4+Q6VVX0+Q7Z449+Q8TAV3+Q96SQ9+Q9HB55)
- method summary: Drug metabolism in human liver S9 fraction assessed as CYP450-mediated metabolism by measuring parent compound remaining at 5 uM measured after 15 mins in presence of NADPH by UPLC analysis
- Type: ADME, subcellular
- run conditions: read-out: Stability
recorded endpoint: remaining at 0.25 h, 5 µM
Enter the number, and then the unit.

Input line: For Nc1ncnc2c1c(-c1ccccn1)cn2[C@@H]1O[C@H](CO)[C@@H](O)[C@H]1O , what is its reported remaining at 0.25 h, 5 µM?
Output line: 96%

----------
This section presents molecules with their documented selectivity ratio values.
- method summary: Selectivity index, ratio of EC50 for human MRC5 cells to EC50 for Trypanosoma brucei rhodesiense STIB-900
- Format: toxicity
- run conditions: read-out: Ratio EC50

Answered cases to consult:
Nc1ncnc2c1c(-c1ccc(F)cn1)cn2[C@@H]1O[C@H](CO)[C@@H](O)[C@H]1O	> 38
Nc1ncnc2c1c(-c1cc(Cl)cc(Cl)c1)cn2[C@@H]1O[C@H](CO)[C@@H](O)[C@H]1O	> 17
Nc1ncnc2c1c(-c1ccccc1F)cn2[C@@H]1O[C@H](CO)[C@@H](O)[C@H]1O	2.3
Cc1ccnc(-c2cn([C@@H]3O[C@H](CO)[C@@H](O)[C@H]3O)c3ncnc(N)c23)c1	> 2.5
Nc1ncnc2c1c(-c1ccc3ccccc3n1)cn2[C@@H]1O[C@H](CO)[C@@H](O)[C@H]1O	> 17

Input line: For Nc1ncnc2c1c(-c1ccc(Cl)cn1)cn2[C@@H]1O[C@H](CO)[C@@H](O)[C@H]1O , what is its reported selectivity ratio?
Output line: > 13

Input line: Okay, and Nc1ncnc2c1c(-c1nccc3ccccc13)cn2[C@@H]1O[C@H](CO)[C@@H](O)[C@H]1O ?
Output line: > 1.2

Input line: Okay, and Nc1ncnc2c1c(-c1cc(Cl)ccn1)cn2[C@@H]1O[C@H](CO)[C@@H](O)[C@H]1O ?
Output line: 4

Input line: Okay, and Nc1ncnc2c1c(-c1ccccc1)cn2[C@@H]1O[C@H](CO)[C@@H](O)[C@H]1O ?
Output line: 14

----------
- method summary: Selectivity index, ratio of EC50 for human MRC5 cells to EC50 for Trypanosoma brucei brucei Squib 427
- Type: toxicity
- run conditions: read-out: Ratio EC50
recorded endpoint: selectivity ratio

Answered cases to consult:
Nc1ncnc2c1c(-c1ccc(F)cc1)cn2[C@@H]1O[C@H](CO)[C@@H](O)[C@H]1O	> 7.3
Nc1ncnc2c1c(-c1ccc(Cl)cc1)cn2[C@@H]1O[C@H](CO)[C@@H](O)[C@H]1O	3.6
Nc1ncnc2c1c(-c1ccccc1F)cn2[C@@H]1O[C@H](CO)[C@@H](O)[C@H]1O	1.8
COc1ccnc(-c2cn([C@@H]3O[C@H](CO)[C@@H](O)[C@H]3O)c3ncnc(N)c23)c1	0.3

# ---- query compound ----
Input line: For Cn1cncc1-c1cn([C@@H]2O[C@H](CO)[C@@H](O)[C@H]2O)c2ncnc(N)c12 , what is its reported selectivity ratio?
Output line: > 1.9

----------
- System: Peritoneal macrophage
- method summary: Cytotoxicity against Swiss mouse primary peritoneal macrophages assessed as reduction in cell viability after 5 days
- Assay type: cell-based
- run conditions: Mus musculus, Swiss, Peritoneal macrophage, 120 h
recorded endpoint: pEC50
Give only the number. pEC50 is defined as minus log10 of concentration in molar units.

Input line: For Nc1ncnc2c1c(-c1ccc(Cl)c(Cl)c1)cn2[C@@H]1O[C@H](CO)[C@@H](O)[C@H]1O , what is its reported pEC50?
Output line: 4.70

----------
This section presents compounds with their documented pEC50 values.
- System: Trypanosoma brucei
- method summary: Antitrypanosomal activity against Trypanosoma brucei TbAT1-KO after 48 hrs by alamar blue assay
- Format: functional, organism-based
Give only the number. pEC50 is defined as minus log10 of concentration in molar units.

Answered cases to consult:
Nc1ncnc2c1ccn2[C@@H]1O[C@H](CO)[C@@H](O)[C@H]1O [TUBERCIDIN]	5.58
Nc1ncnc2c1c(-c1ccccn1)cn2[C@@H]1O[C@H](CO)[C@@H](O)[C@H]1O	6.40

Input line: For N=C(N)c1ccc(/N=N/Nc2ccc(C(=N)N)cc2)cc1 [DIMINAZENE] , what is its reported pEC50?
Output line: 5.35

Input line: Okay, and N=C(N)c1ccc(OCCCCCOc2ccc(C(=N)N)cc2)cc1 [PENTAMIDINE] ?
Output line: 7.74

Input line: Okay, and CC[n+]1c(-c2ccccc2)c2cc(N/N=N/c3cccc(C(=N)N)c3)ccc2c2ccc(N)cc21 [ISOMETAMIDIUM] ?
Output line: 6.12

----------
This section presents compounds with their documented selectivity ratio values.
- method summary: Selectivity index, ratio of EC50 for human MRC5 cells to EC50 for Trypanosoma brucei rhodesiense STIB-900
- Type: toxicity
- run conditions: read-out: Ratio EC50
Write the value as a bare number.

Input line: For COc1ccnc(-c2cn([C@@H]3O[C@H](CO)[C@@H](O)[C@H]3O)c3ncnc(N)c23)c1 , what is its reported selectivity ratio?
Output line: 0.9

Input line: Okay, and Nc1ncnc2c1c(-c1cccc(Cl)c1)cn2[C@@H]1O[C@H](CO)[C@@H](O)[C@H]1O ?
Output line: 4.8

Input line: Okay, and Nc1ncnc2c1c(-c1ccc(Cl)c(Cl)c1)cn2[C@@H]1O[C@H](CO)[C@@H](O)[C@H]1O ?
Output line: 46

----------
- Test system: CYP450
- method summary: Drug metabolism in rat liver S9 fraction assessed as CYP450-mediated metabolism by measuring parent compound remaining at 5 uM measured after 30 mins in presence of NADPH by UPLC analysis
- Format: ADME, subcellular
- run conditions: read-out: Stability
recorded endpoint: remaining at 0.5 h, 5 µM

Input line: For Nc1ncnc2c1c(-c1ccccn1)cn2[C@@H]1O[C@H](CO)[C@@H](O)[C@H]1O , what is its reported remaining at 0.5 h, 5 µM?
Output line: 77%

----------
- Test system: Trypanosoma congolense
- method summary: Antitrypanosomal activity against Trypanosoma congolense by resazurin assay
- Type: functional, organism-based
recorded endpoint: pEC50
Give only the number. pEC50 is defined as minus log10 of concentration in molar units.

N=C(N)c1ccc(OCCCCCOc2ccc(C(=N)N)cc2)cc1	5.72
Nc1ncnc2c1c(-c1ccccn1)cn2[C@@H]1O[C@H](CO)[C@@H](O)[C@H]1O	6.70

# ---- query molecule ----
Input line: For N=C(N)c1ccc(/N=N/Nc2ccc(C(=N)N)cc2)cc1 , what is its reported pEC50?
Output line: 6.66

----------
- Test system: CYP450
- method summary: Drug metabolism in mouse liver S9 fraction assessed as CYP450-mediated metabolism by measuring parent compound remaining at 5 uM measured immediately in presence of NADPH by UPLC analysis
- Format: ADME, subcellular
- run conditions: read-out: Stability
recorded endpoint: remaining at 0 min, 5 µM (%)
Number only, in %; omit the unit.

Input line: Request body: readout remaining at 0 min, 5 µM, system CYP450, query Nc1ncnc2c1c(-c1ccccn1)cn2[C@@H]1O[C@H](CO)[C@@H](O)[C@H]1O . Return the value.
Output line: 100

----------
This section presents compounds with their documented pKi values.
- method summary: Inhibition of [3H]-adenosine transport at Trypanosoma brucei Adenosine transporter P2 expressed in pentamidine/diminazene/melaminophenyl arsenical resistant Trypanosoma brucei B48 bloodstream forms after 60 secs by scintillation counting analysis
Give only the number. pKi is defined as minus log10 of concentration in molar units.

Input line: For Nc1ncnc2c1ccn2[C@@H]1O[C@H](CO)[C@@H](O)[C@H]1O , what is its reported pKi?
Output line: 5.42

Input line: Okay, and Nc1ncnc2c1c(-c1ccncc1)cn2[C@@H]1O[C@H](CO)[C@@H](O)[C@H]1O ?
Output line: 5.03

Input line: Okay, and Nc1ncnc2c1c(-c1cccnc1)cn2[C@@H]1O[C@H](CO)[C@@H](O)[C@H]1O ?
Output line: 4.31

Input line: Okay, and Nc1ncnc2c1c(-c1ccccn1)cn2[C@@H]1O[C@H](CO)[C@@H](O)[C@H]1O ?
Output line: 5.34

----------
- Test system: UGT
- method summary: Drug metabolism in mouse liver S9 fraction assessed as UGT-mediated metabolism by measuring parent compound remaining at 5 uM measured after 15 mins in presence of UDPGA by UPLC analysis
- Format: ADME, subcellular
- run conditions: read-out: Stability
recorded endpoint: remaining at 0.25 h, 5 µM
Enter the number, and then the unit.

Input line: Request body: readout remaining at 0.25 h, 5 µM, system UGT, query Nc1ncnc2c1c(-c1ccccn1)cn2[C@@H]1O[C@H](CO)[C@@H](O)[C@H]1O . Return the value.
Output line: 112%
